List of pIC50 values.
target: UniProtKB P33261
Sequence (P33261 whole entry): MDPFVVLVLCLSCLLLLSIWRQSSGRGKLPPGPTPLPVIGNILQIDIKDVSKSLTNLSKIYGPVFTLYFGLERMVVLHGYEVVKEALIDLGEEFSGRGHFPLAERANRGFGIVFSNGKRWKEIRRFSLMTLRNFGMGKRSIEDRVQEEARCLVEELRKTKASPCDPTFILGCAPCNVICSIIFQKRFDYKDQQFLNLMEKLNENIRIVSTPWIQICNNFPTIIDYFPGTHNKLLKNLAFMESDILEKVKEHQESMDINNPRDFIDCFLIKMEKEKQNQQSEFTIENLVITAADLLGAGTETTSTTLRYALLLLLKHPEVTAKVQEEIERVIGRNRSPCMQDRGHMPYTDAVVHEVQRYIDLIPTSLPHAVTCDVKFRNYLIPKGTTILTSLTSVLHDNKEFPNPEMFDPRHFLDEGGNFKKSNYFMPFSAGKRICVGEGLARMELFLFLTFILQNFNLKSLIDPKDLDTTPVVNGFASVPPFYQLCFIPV
The quantity pIC50 is defined as the negative base-10 logarithm of the molar concentration.

{"MOLECULE": "COc1ccc2c(c1)[C@]1(C[C@H]1c1ccc3c(/C=C/c4ccc(CN5CCCCC5)nc4)n[nH]c3c1)C(=O)N2 (relative stereo)", "pIC50": 6.22}
{"MOLECULE": "O=C1Nc2ccccc2/C1=C/c1ccc2cn[nH]c2c1", "pIC50": 6.68}
{"MOLECULE": "O=C1Nc2ccc(F)cc2[C@]12C[C@H]2c1ccc2c(/C=C/c3ccc(CN4CCOCC4)cc3)n[nH]c2c1", "pIC50": 6.00}
{"MOLECULE": "O=C1Nc2ccccc2[C@]12C[C@H]2c1ccc2c(/C=C/c3ccc(CN4CCOCC4)cc3)n[nH]c2c1 (relative stereo)", "pIC50": 5.74}

Q: Lookup: pIC50 / UniProtKB P33261 / COc1ccc2c(c1)[C@]1(C[C@H]1c1ccc3c(/C=C/c4ccc(CN5CCOCC5)cc4)n[nH]c3c1)C(=O)N2 (relative stereo)
A: 5.68

Q: Lookup: pIC50 / UniProtKB P33261 / COc1ccc2c(c1)/C(=C\c1ccc3c(/C=C/c4ccc(N5CCN(C)CC5)nc4)n[nH]c3c1)C(=O)N2
A: 6.10

Q: Lookup: pIC50 / UniProtKB P33261 / COc1ccc2c(c1)[C@]1(C[C@H]1c1ccc3c(/C=C/c4ccc(N5CCN(C)CC5)nc4)n[nH]c3c1)C(=O)N2 (relative stereo)
A: 5.80

Q: Lookup: pIC50 / UniProtKB P33261 / O=C1Nc2ccccc2[C@]12C[C@H]2c1ccc2c(/C=C/c3cccnc3)n[nH]c2c1 (relative stereo)
A: 6.96

====

tested on: MCF7; test: Cytotoxicity against human MCF7 cells after 5 days by SRB assay; assay type: functional; settings: MCF7, 120 h
List of log10(GI50) values.
// do not treat as linear: log10 of GI50, unit nM

{"COMPOUND": "Cc1ccc2c(c1)[C@]1(C[C@H]1c1ccc3c(/C=C/c4ccc(CN5CCOCC5)cc4)n[nH]c3c1)C(=O)N2 (relative stereo)", "log10(GI50)": 1.90}
{"COMPOUND": "CN(C)Cc1ccc(/C=C/c2n[nH]c3cc(/C=C4/C(=O)Nc5ccccc54)ccc23)cc1", "log10(GI50)": 0.85}
{"COMPOUND": "COc1ccc2c(c1)[C@]1(C[C@H]1c1ccc3c(/C=C/c4ccc(CN5CCCCC5)nc4)n[nH]c3c1)C(=O)N2 (relative stereo)", "log10(GI50)": -2.00}

Q: Dear colleague, I am looking for the recorded log10(GI50) of the following compound: Cc1ccc(/C=C/c2n[nH]c3cc([C@@H]4C[C@@]45C(=O)Nc4ccccc45)ccc23)c(C)n1 (relative stereo)
A: 3.83

Q: Dear colleague, I am looking for the recorded log10(GI50) of the following compound: O=C1Nc2ccccc2[C@]12C[C@H]2c1ccc2c(/C=C/c3ccc(CN4CCCC4)cc3)n[nH]c2c1 (relative stereo)
A: 1.70

====

test system: MDA-MB-468; experiment: Cytotoxicity against human MDA-MB-468 cells after 5 days by SRB assay; format: functional; details: MDA-MB-468, 120 h
Field 'label' (enum: Satisfied / Not satisfied). Set to Satisfied when GI50 is strictly under 10 nM; else Not satisfied.

Q: Regarding COc1ccc2c(c1)[C@]1(C[C@H]1c1ccc3c(/C=C/c4ccc(CN5CCOCC5)cc4)n[nH]c3c1)C(=O)N2 (relative stereo) , kindly confirm whether its GI50 is beneath 10 nM.
A: Satisfied

Q: Regarding Cc1ccc(/C=C/c2n[nH]c3cc([C@@H]4C[C@@]45C(=O)Nc4ccccc45)ccc23)c(C)n1 (relative stereo) , kindly confirm whether its GI50 is beneath 10 nM.
A: Not satisfied

Q: Regarding COc1ccc2c(c1)[C@]1(C[C@H]1c1ccc3c(/C=C/c4ccc(CN5CCCCC5)nc4)n[nH]c3c1)C(=O)N2 (relative stereo) , kindly confirm whether its GI50 is beneath 10 nM.
A: Satisfied

Q: Regarding Cc1ccc2c(c1)[C@]1(C[C@H]1c1ccc3c(/C=C/c4ccc(CN5CCOCC5)cc4)n[nH]c3c1)C(=O)N2 (relative stereo) , kindly confirm whether its GI50 is beneath 10 nM.
A: Not satisfied

Q: Regarding O=C1Nc2ccccc2[C@]12C[C@H]2c1ccc2cn[nH]c2c1 (relative stereo) , kindly confirm whether its GI50 is beneath 10 nM.
A: Not satisfied

Q: Regarding Cc1ccc(/C=C/c2n[nH]c3cc([C@@H]4C[C@@]45C(=O)Nc4ccccc45)ccc23)cn1 , kindly confirm whether its GI50 is beneath 10 nM.
A: Not satisfied

Where do these numbers come from? They come from ChEMBL document CHEMBL3351767.
